Every entry's value here was drawn from patent US20230293517A1.

This listing pairs compounds with measured pKi.
Biological target: UniProtKB P29275
Sequence (P29275 whole entry): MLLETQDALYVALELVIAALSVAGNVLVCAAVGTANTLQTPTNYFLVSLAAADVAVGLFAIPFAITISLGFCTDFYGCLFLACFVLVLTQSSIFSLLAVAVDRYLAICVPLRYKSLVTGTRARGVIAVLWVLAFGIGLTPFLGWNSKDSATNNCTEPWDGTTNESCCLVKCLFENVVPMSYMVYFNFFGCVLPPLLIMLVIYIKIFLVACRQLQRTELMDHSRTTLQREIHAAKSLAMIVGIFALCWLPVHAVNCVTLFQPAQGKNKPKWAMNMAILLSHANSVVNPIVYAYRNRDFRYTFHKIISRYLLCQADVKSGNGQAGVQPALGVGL
Assay: Adenosine receptor TR-FRET binding assay (A2b)
Hey, just a heads up that pKi is the negative log base 10 of the concentration in molar.

Known results for compounds:
compound="Cc1cc(-c2sc(NC(=O)N3CCOC(C(C)(C)O)C3)nc2-c2cccc(C#N)c2)cc(C)n1 (stereo not shown)" meas_value=8.60
compound=Cc1cc(-c2sc(NC(=O)N3CCN(S(N)(=O)=O)CC3)nc2-c2cccc(C#N)c2)cc(C)n1 meas_value=8.89
compound=Cc1cc(-c2sc(NC(=O)N3CCN[C@@H](C)C3)nc2-c2cccc(C#N)c2)cc(Cl)n1 meas_value=8.24

Now turn to the next compound.
Q) Which pKi is listed for Cc1cc(-c2sc(NC(=O)N3C[C@@H]4OCCN(C)[C@H]4C3)nc2-c2cccc(C#N)c2)cc(C(F)F)n1 (racemic) ?
A) 7.34
